Substrate: C1O[C@@H]1[C@@H]1CO1
Assay Name: purified protein
Condition Parameters: 5 mM GSH, 0.10 M Tris-HCl pH 7.7, 37 °C, 1 h
Measurement Name: kcat/Km (M⁻¹ s⁻¹)
Answer format: numeric, M⁻¹ s⁻¹ implied, no suffix.

Consider human GST P1-1 (Homo sapiens) (protein) PPYTVVYFPVRGRCAALRMLLADQGQSWKEEVVTVETWQEGSLKASCLYGQLPKFQDGDLTLYQSNTILRHLGRTLGLYGKDQQEAALVDMVNDGVEDLRCKYISLIYTNYEAGKDDYVKALPGQLKPFETLLSQNQGGKTFIVGDQISFADYNLLDLLLIHEVLAPGCLDAFPLLSAYVGRLSARPKLKAFLASPEYVNLPINGNGKQ . Its measured kcat/Km is 65

Consider human GST A1-1 (Homo sapiens) (protein) AEKPKLHYFNARGRMESTRWLLAAAGVEFEEKFIKSAEDLDKLRNDGYLMFQQVPMVEIDGMKLVQTRAILNYIASKYNLYGKDIKERALIDMYIEGIADLGEMILLLPVCPPEEKDAKLALIKEKIKNRYFPAFEKVLKSHGQDYLVGNKLSRADIHLVELLYYVEELDSSLISSFPLLKALKTRISNLPTVKKFLQPGSPRKPPMDEKSLEEARKIFRF . Its measured kcat/Km is 78.3

Consider human GST T1-1 (Homo sapiens) (protein) GLELYLDLLSQPCRAVYIFAKKNDIPFELRIVDLIKGQHLSDAFAQVNPLKKVPALKDGDFTLTESVAILLYLTRKYKVPDYWYPQDLQARARVDEYLAWQHTTLRRSCLRALWHKVMFPVFLGEPVSPQTLAATLAELDVTLQLLEDKFLQNKAFLTGPHISLADLVAITELMHPVGAGCQVFEGRPKLATWRQRVEAAVGEDLFQEAHEVILKAKDFPPADPTIKQKLMPWVLAMIR . Its measured kcat/Km is 78.3

Consider human GST A3-3 (Homo sapiens) (protein) AGKPKLHYFNGRGRMEPIRWLLAAAGVEFEEKFIGSAEDLGKLRNDGSLMFQQVPMVEIDGMKLVQTRAILNYIASKYNLYGKDIKERALIDMYTEGMADLNEMILLLPLCRPEEKDAKIALIKEKTKSRYFPAFEKVLQSHGQDYLVGNKLSRADISLVELLYYVEELDSSLISNFPLLKALKTRISNLPTVKKFLQPGSPRKPPADAKALEEARKIFRF . Its measured kcat/Km is 66.7

Consider rat GST 5-5 (Rattus norvegicus) (protein) VLELYLDLLSQPCRAIYIFAKKNNIPFQMHTVELRKGEHLSDAFAQVNPMKKVPAMKDGGFTLCESVAILLYLAHKYKVPDHWYPQDLQARARVDEYLAWQHTTLRRSCLRTLWHKVMFPVFLGEQIRPEMLAATLADLDVNVQVLEDQFLQDKDFLVGPHISLADVVAITELMHPVGGGCPVFEGRPRLAAWYRRVEAAVGKDLFLEAHEVILKVRDCPPADPVIKQKLMPRVLTMIQ . Its measured kcat/Km is 83.3
